- ASSAY REMARKS: Concentration in brain extracts after single i.v. bolus
- Assay type: in vivo, Sprague-Dawley rats
- DETAILS: male, Sprague-Dawley, rat, brain, intravenous, 0.75 mg/kg, anatabine 0.75 mg/kg i.v., 0.5 hr, Male; read-out: Mean concentration in rat brain extracts
QUANTITY: concentration at 0.5 h (ng/g)
Output spec: scalar in ng/g, unitless text.

# input What value of concentration at 0.5 h has been reported for the following molecule? C1=CCC(c2cccnc2)NC1 (racemic) [Anatabine, 1,2,3,6-tetrahydro-[2,3′]bipyridinyl]
# output 276

---

- ASSAY REMARKS: Plasma pharmacokinetics after oral multi-dose anatabine polacrilex
- Assay type: in vivo, Sprague-Dawley rats
- DETAILS: male, Sprague-Dawley, rat, plasma, oral, 2 mg/kg BW, Avg. Conc. of anatabine in plasma, dose group 2, male, 720 min
- Description: This study consisted of two groups of 8 animals each, 4 males and 4 females. Two formulations were prepared; one for each of the two treatment groups. […] Sample preparation. […] The amount of the test agent in the supernatant was determined by LC/MS/MS. Analysis. Samples were analyzed by LC/MS/MS using an Agilent 6410 mass spectrometer coupled with an Agilent 1200 high pressure liquid chromatography (HPLC) and a CTC PAL chilled autosampler, all controlled by MassHunter software (Agilent). […]
QUANTITY: concentration at 720 min (ng/mL)
Output spec: scalar in ng/mL, unitless text.

# input What value of concentration at 720 min has been reported for the following compound? C1=CCC(c2cccnc2)NC1 (racemic) [Anatabine, 1,2,3,6-tetrahydro-[2,3′]bipyridinyl]
# output 203
